assay.target: HLA-A*02:01
assay: IEDB peptide-MHC binding, purified MHC/competitive/radioactivity; bounds were set here for any values at or beyond the usual limits of such assays
protocol.conditions: source organism: Vaccinia virus WR
reported.property: IC50
Kindly format the answer as number then unit.

[
  {
    "residue.sequence": "ITNGYLISI",
    "recorded.measurement": "54 nM"
  },
  {
    "residue.sequence": "AISAVYFKA",
    "recorded.measurement": "41 nM"
  },
  {
    "residue.sequence": "LQYDLWNVV",
    "recorded.measurement": "22 nM"
  },
  {
    "residue.sequence": "QMAGVEVRYI",
    "recorded.measurement": "6.4 nM"
  },
  {
    "residue.sequence": "ATFRDMLLNV",
    "recorded.measurement": "8.3 nM"
  },
  {
    "residue.sequence": "AIYSAILLLV",
    "recorded.measurement": "53 nM"
  }
]

Exam item: Identify measured IC50 corresponding to "PTILATLNTL"
Marked response: 1340 nM

Exam item: Give me measured IC50, please, for this sequence: "IVYGRSNAI"
Marked response: 228 nM

Exam item: # return recorded IC50 for input "FIKQGFNNLV"
Marked response: 119 nM

Exam item: Report measured IC50; entry is "VLALYSPPL"
Marked response: 0.19 nM

Exam item: Write down IC50 measured for item "GTYAVNIHV"
Marked response: 33 nM

Exam item: Tell me IC50 reported for "FIISTLNKIL"
Marked response: 170 nM

Exam item: Answer with the recorded IC50 of "NLNIVRDMLV" only.
Marked response: 28 nM

Exam item: Output measured IC50 for this item: "SVVIYDFLV"
Marked response: 1.1 nM

Exam item: Provide measured IC50 value, entry: "ILYAAFLWL"
Marked response: 112 nM

Exam item: Please report IC50 for the following sequence: "LLFDRDTFYI"
Marked response: 0.4 nM

Exam item: Give the reported IC50 for this sequence. "KLTDKKTFII"
Marked response: 4390 nM

Exam item: For the sequence "SLSSIRFHI" , report IC50.
Marked response: 11 nM

Exam item: Fill in reported IC50 for this entry: "SQYANCSSI"
Marked response: 81 nM

Exam item: Look up IC50 of "VLSNTSTAV" and report it.
Marked response: 16 nM

Exam item: For the sequence "AMTAFFGEL" , give its measured IC50 value.
Marked response: 50 nM

Exam item: Please give the documented IC50 of "YLSSWTPVV"
Marked response: 0.33 nM

Exam item: Identify the reported IC50 for the following entry. "NMISDTIFV"
Marked response: 2.2 nM

---

assay.target: HLA-A*02:01
assay: IEDB peptide-MHC binding, purified MHC/competitive/radioactivity; bounds were set here for any values at or beyond the usual limits of such assays
protocol.conditions: source organism: Vaccinia virus WR
Each entry falls in a class defined on IC50; the bands are bin 1 (below 90 nM), bin 2 (90 nM to below 1000 nM), bin 3 (1000 nM or more)

Use these answered entries as a reference point.
[
  {
    "residue.sequence": "NLVKLSSYHV",
    "label": "bin 3"
  },
  {
    "residue.sequence": "CQCTVQEFI",
    "label": "bin 3"
  }
]

Exam item: Just checking, what class would you give "GLFDINVIGL" here?
Marked response: bin 1

Exam item: Returns: class label. Input: "RLNPEVSYFT"
Marked response: bin 2

Exam item: Hey, which category is "GLIYSMEFT" in, do you know?
Marked response: bin 3

Exam item: # classify by IC50 band: "TLFDDELYSI"
Marked response: bin 1

Exam item: Dear colleague, I would appreciate it if you could identify the bin for "SVVVPIKFI" and reply at your convenience.
Marked response: bin 3

Exam item: For this sequence, which bin applies? "SLQTCAGVI"
Marked response: bin 3

Exam item: Class for "FLHNYILYA" ?
Marked response: bin 1

Exam item: Kindly state the category for this sequence: "QIFNIISYII"
Marked response: bin 2

Exam item: // return the class label for "VTLLCVLPA"
Marked response: bin 1

Exam item: Which bin should I file "DLNAVTTNNL" under?
Marked response: bin 3

---

assay.target: HLA-B*07:02
assay: IEDB peptide-MHC binding, cellular MHC/competitive/fluorescence; bounds were set here for any values at or beyond the usual limits of such assays
protocol.conditions: source organism: Mammarenavirus machupoense
reported.property: IC50 (µM)
Numbers only; they are read as µM.

Exam item: # assay system HLA-B*07:02: give IC50 of "MLNNSFYYM"
Marked response: 29.7

---

assay.target: HLA-A*02:03
assay: IEDB peptide-MHC binding, purified MHC/competitive/radioactivity; bounds were set here for any values at or beyond the usual limits of such assays
protocol.conditions: source organism: Vaccinia virus WR
Decide using IC50 alone. Strictly below 80 nM: t. Equal to or above 80 nM: f.

Sample answers from the record:
[
  {
    "residue.sequence": "LVITYCLVT",
    "label": "f"
  },
  {
    "residue.sequence": "TTFITVLTSV",
    "label": "t"
  },
  {
    "residue.sequence": "VLTILYYGA",
    "label": "t"
  },
  {
    "residue.sequence": "SIMSMMNIT",
    "label": "f"
  },
  {
    "residue.sequence": "NVFISPASI",
    "label": "t"
  }
]

Exam item: Lab log: compare recorded IC50 with 80 nM; is it strictly lower for "DITNILGGVL" ?
Marked response: f

Exam item: Take the sequence "NLILNFLDWI" and say whether its IC50 is less than 80 nM.
Marked response: f

Exam item: Does this sequence meet the criterion IC50 < 80 nM? "IQYRQQLEL"
Marked response: t

Exam item: Lab note: confirm whether the reported IC50 for this sequence is below 80 nM, equality not counting. sequence: "SVDAMIHKT"
Marked response: f

Exam item: Is the reported IC50 for "SVKYYGRST" strictly below 80 nM?
Marked response: f

Exam item: Please determine if "AMHDKKIDIL" is below 80 nM in terms of IC50.
Marked response: f

Exam item: Check if IC50 falls below 80 nM for "DLLNVTYNI" .
Marked response: f

Exam item: Answer whether the sequence "YAGTIKESLL" has IC50 strictly less than 80 nM
Marked response: f

Exam item: Bench note: check whether "YMSNLFDIPL" shows IC50 below 80 nM
Marked response: t

Exam item: Lab note: confirm whether the reported IC50 for this sequence is below 80 nM, equality not counting. sequence: "VISTIANSNI"
Marked response: f

Exam item: Criterion: IC50 strictly below 80 nM. Is it met by "GVCYYLLMHL" ?
Marked response: t

Exam item: Lab log: compare recorded IC50 with 80 nM; is it strictly lower for "ILATLNTLIT" ?
Marked response: t

Exam item: Below 80 nM on IC50? Entry "SLTQVKELGI"
Marked response: t

Exam item: Is the reported IC50 for "KTIAVSVYGA" strictly below 80 nM?
Marked response: f

Exam item: Does "IVVALSSLV" have IC50 strictly under 80 nM?
Marked response: t

---

assay.target: HLA-A*02:02
assay: IEDB peptide-MHC binding, cellular MHC/competitive/fluorescence; bounds were set here for any values at or beyond the usual limits of such assays
protocol.conditions: source organism: Mammarenavirus whitewaterense
pIC50: −log10 of the molar value.
reported.property: pIC50

Exam item: Fill in pIC50 for "YCHGILLKDV" tested with HLA-A*02:02.
Marked response: ≤ 4.15

---

assay.target: HLA-A*11:01
assay: IEDB peptide-MHC binding, cellular MHC/competitive/fluorescence; bounds were set here for any values at or beyond the usual limits of such assays
protocol.conditions: source organism: Mammarenavirus lassaense
reported.property: pIC50
To interpret pIC50, take it as minus log10 of a concentration measured in moles per litre.

Exam item: Look up pIC50 of "TSFYLISIFL" and report it.
Marked response: 5.09

---

Measured IC50 of individual entries
assay.target: HLA-A*02:02
assay: IEDB peptide-MHC binding, purified MHC/competitive/radioactivity; bounds were set here for any values at or beyond the usual limits of such assays
protocol.conditions: source organism: Mammarenavirus guanaritoense

Guide cases for IC50, answers given:
[
  {
    "residue.sequence": "TLVDLCFWS",
    "IC50": "58 nM"
  },
  {
    "residue.sequence": "FMNDLQVSR",
    "IC50": "249 nM"
  },
  {
    "residue.sequence": "YCNYTRFWYI",
    "IC50": "1060 nM"
  },
  {
    "residue.sequence": "TNAEFTFQL",
    "IC50": "404 nM"
  },
  {
    "residue.sequence": "WSAIFFTTSL",
    "IC50": "2000 nM"
  }
]

Exam item: Name the recorded IC50 of the item "TSVDLNAPV" in your answer.
Marked response: 65 nM

Exam item: Provide IC50 value for the following sequence: "MNNVVQALT"
Marked response: 2290 nM

Exam item: Fill in reported IC50 for this entry: "LCFWSAIFFT"
Marked response: 2610 nM
